Assay comment: compound effects on lung adenocarcinoma cell viability – A549, calcein-AM fluorescence, 48 h, basal, profiling panel (AID 1162); further: test concentration not given here
Test parameters: higher = more signal
Record form. Attribute: z-score. Fill in for each entry.
// keep it numeric: no unit symbol after the value

The reported value for O=C1O[C@H](c2ccccc2)[C@H](c2ccccc2)N2[C@H]1[C@@H](C(=O)O)[C@]1(C(=O)Nc3ccc(C#CCCO)cc31)[C@H]2c1ccc(OCCO)cc1 in terms of z-score is 0.616

Reported z-score ( O=C1c2ccccc2[C@@]2(Cc3ccccc3N(Cc3ccccc3)C2=O)[C@H](c2ccc(CO)cc2)N1Cc1ccccc1Cl ) = -0.334

Measured z-score of COCCn1c(C(=O)N(C)C)cc2c1C[C@H]1CN(C(=O)c3ccccc3)[C@@](Cc3ccc(OC)cc3)(C(=O)OC)[C@@H]21 : -0.615

Given item Cc1ccc(S[C@]2(C(=O)NC3CC3)CC(=O)N(C(C)C)[C@@H]2c2ccc(CO)cc2I)cc1 , the value recorded as its z-score is 1.22

Value of measured z-score for the entry CN(C)CCCC[C@@H]1NC(=O)[C@H]2C[C@@H](C(=O)O)[C@@H](c3ccc(O)cc3)N2C1=O : 0.151

# z-score (compound: CC(C)NC(=O)[C@@]1(C)c2ccccc2C(=O)N(Cc2ccccc2)[C@H]1c1ccc(CO)cc1 ) is 0.389

Short answer for COCCOC(=O)N1C(=O)[C@@]2(c3ccccc31)[C@H](C(=O)N1CCN(c3ncccn3)CC1)[C@H]1C(=O)O[C@H](c3ccccc3)[C@H](c3ccccc3)N1[C@@H]2c1ccccc1OCCO : z-score was 1.14

So, CN(C)C(=O)[C@]1(Cc2ccccc2)N=C(c2ccc(OCCCO)cc2)O[C@@H]1c1ccccc1CN=[N+]=[N-] ? Its z-score was 0.233

Measured z-score, COC(=O)C(CC#Cc1ccc2c(c1)[C@]1(C(=O)N2)[C@H](C(=O)NC[C@H](O)c2ccccc2)[C@H]2C(=O)O[C@H](c3ccccc3)[C@H](c3ccccc3)N2[C@@H]1c1ccccc1OCCO)C(=O)OC : -0.101

The value of z-score measured for the compound CC[C@@H]1C=C(C(=O)O)[C@H](c2ccc(OC)cc2)N1S(=O)(=O)c1ccc(C)cc1 turned out to be -0.0984

The reported value for O=C1[C@H]2C=C(I)[C@H](C[C@@H]2OCCCCCCO)[C@@]12CO2 in terms of z-score is 0.249

z-score reported for this compound CCOC(=O)C[C@H]1[C@H](OC(=O)Cc2ccc3c(c2)OCO3)[C@@H](NC(=O)c2ccc3ccccc3n2)c2cc(OCCCO)ccc2N1C(=O)Cc1ccc(OC)cc1 : 0.703

* * *

Assay comment: compound effects on hepatocellular carcinoma cell viability – HepG2, calcein-AM fluorescence, 48 h, basal, profiling panel (AID 1164); further: test concentration not given here
Test parameters: higher = more signal
Assignment: determine reported z-score for the given compounds.

Entry C=CCNC(=O)[C@H]1[C@@H]2C(=O)O[C@@H](c3ccccc3)[C@@H](c3ccccc3)N2[C@@H](c2ccccc2OCCO)[C@]12C(=O)N(C(=O)OCCOC)c1ccc(C#Cc3ccc(OC)cc3)cc12 , z-score reported as 0.0823

Recorded z-score (compound CC(C)=CCCC(C)=CC(O)C1C=CC2C(=O)NC(=O)C2N1Nc1ccccn1 (stereo not drawn) ): 1.29

In plain terms, COc1ccc([Si](C)(C)[C@@H]2[C@@H](CC(=O)N3Cc4ccccc4C[C@H]3CO)O[C@]3(C(=O)N(Cc4cccc(N5CCOC5=O)c4)c4ccccc43)[C@H]2C)cc1 has a documented z-score of -0.443

COC(=O)C(CC#Cc1ccc2c(c1)[C@]1(C(=O)N2)[C@H](c2ccccc2OCCO)N2[C@H](c3ccccc3)[C@H](c3ccccc3)OC(=O)[C@H]2[C@@H]1C(=O)N1CCc2cc(OC)c(OC)cc2C1)C(=O)OC yielded z-score of 2.08

// z-score lookup, compound = C[N+](C)(C)CCCCNC(=O)[C@H]1C[C@H]2C(=O)N[C@@H](Cc3ccccc3)C(=O)N2[C@H]1c1cccc(OCCO)c1 , result: -0.097

Entry N#Cc1ccc(C(O)C2C=CC3C(=O)NC(=O)C3N2Nc2ccc(Cl)cc2Cl)cc1 (stereo not drawn) — recorded z-score = -0.726

Sample COc1ccc([Si](C)(C)[C@H]2[C@H](CC(=O)N3Cc4ccccc4C[C@H]3CO)O[C@@]3(C(=O)N(C)c4c(Br)cc(C)cc43)[C@@H]2C)cc1 ; z-score observed: -4.66

C=C(/C(=C/C[C@@H](OC(C)=O)c1cccc(OCCO)c1)c1cnc2ccccc2c1)C(C)C yielded z-score of 0.224

Cc1ccc(S[C@]2(C(=O)NCCCN(C)C)CC(=O)N(Cc3ccccc3C(F)(F)F)[C@@H]2c2ccc(CO)cc2I)cc1 has a reported z-score of -0.297

Entry COc1ccc([Si](C)(C)[C@H]2[C@H](CC(=O)N3Cc4ccccc4C[C@H]3CO)O[C@@]3(C(=O)N(C)c4ccccc43)[C@@H]2C)cc1 , z-score reported as -1.42

Entry CN(C)CCCNC(=O)[C@@]1(C)c2ccccc2C(=O)N(Cc2ccc(OC(F)(F)F)cc2)[C@H]1c1ccc(CO)cc1 — recorded z-score = -0.261

Entry O=C(O)[C@H](Cc1ccccc1)n1cc(C2(O)CCCCC2)nn1 , z-score reported as 0.105

# compound C=CCOC(=O)[C@@H]1[C@H]2C(=O)O[C@H](c3ccccc3)[C@H](c3ccccc3)N2[C@H](c2ccc(OCCOC(=O)[C@H]3C[C@H]4C(=O)N[C@@H](CCCCN(C)C)C(=O)N4[C@H]3c3ccc(O)cc3)cc2)[C@@]12C(=O)Nc1ccc(I)cc12 ; its z-score = 0.278

Reference source for all entries: PubChem BioAssay
